Each recorded value in this set is attributed to patent US20250387381A1.

# EXPERIMENT DESCRIPTION: RFB saturated solubility in DMSO and NMP with or without amphiphilic additives
# CONDITION LABEL: organic solvent or mixture, thermodynamic from solid, RFB maximum solubility in NMP, NMP without additive, room temperature; mean±SD
OBSERVABLE: solubility at 1 day (mg/mL)
Give the quantity in mg/mL, number only.

Note down solubility at 1 day recorded for CO[C@H]1/C=C/O[C@@]2(C)Oc3c(C)c(O)c4c(c3C2=O)C2=NC3(CCN(CC(C)C)CC3)NC2=C(NC(=O)/C(C)=C\C=C\[C@H](C)[C@H](O)[C@@H](C)[C@@H](O)[C@@H](C)[C@H](OC(C)=O)[C@@H]1C)C4=O
148
